Origin of values: paper PMC7127107

Test system: PEDV SM98 strain
test_description: Simultaneous-treatment antiviral assay
Assay type: cell-based, porcine epidemic diarrhea virus
condition_details: Porcine epidemic diarrhea virus, Vero, read-out: Simultaneous-treatment IC50
pIC50: −log10 of the molar value.
reported_property: pIC50

- query_smiles: "Oc1cc(O)cc(Oc2c(O)cc(O)c3c2Oc2c(O)cc(O)cc2O3)c1"
  pIC50: 4.65
- query_smiles: "Oc1cc(O)cc(Oc2c(O)cc(O)c3c2Oc2c(O)cc(Oc4c(O)cc(Oc5c(O)cc(O)c6c5Oc5c(O)cc(O)cc5O6)cc4O)cc2O3)c1"
  pIC50: 4.78

* * *

Tested on: PEDV SM98 strain
test_description: Simultaneous-treatment antiviral assay
Assay type: cell-based, porcine epidemic diarrhea virus
condition_details: African green monkey, Vero cells infected with PEDV SM98 strain
reported_property: selectivity ratio at 72 h
Respond with the number and no other words.

- compound: "Oc1cc(O)cc(Oc2c(O)cc(O)c3c2Oc2c(O)cc(O)cc2O3)c1 [Compound 2, eckol]"
  selectivity ratio at 72 h: 17.2

Prompt: What does the data say about its selectivity ratio at 72 h? Entry: Oc1cc(O)cc(Oc2c(O)cc(O)c3c2Oc2c(O)cc(Oc4c(O)cc(Oc5c(O)cc(O)c6c5Oc5c(O)cc(O)cc5O6)cc4O)cc2O3)c1 [Compound 5, dieckol]
Response: 29.5
